experiment: in vitro; settings: human, Caco-2
ENDPOINT_LABEL: Papp A→B at 2 h, 10 μM (×10⁻⁶ cm/s)
# unit: ×10⁻⁶ cm/s | format: bare number

Form field Papp A→B at 2 h, 10 μM, entry COCCc1ccc(OCC(O)CNC(C)C)cc1 (centres unmarked) : 19.4

Input `CNC(=C[N+](=O)[O-])NCCSCc1ccc(CN(C)C)o1` . Output Papp A→B at 2 h, 10 μM: 0.585

====

assay: in vitro; settings: human, Caco-2
ENDPOINT_LABEL: efflux ratio at 2 h, 10 μM
Returns: the value as a bare number; no unit string appended.

For this molecule ( COCCc1ccc(OCC(O)CNC(C)C)cc1 (centres unmarked) [Metoprolol] ), measured efflux ratio at 2 h, 10 μM is 2.22

Sample CNC(=C[N+](=O)[O-])NCCSCc1ccc(CN(C)C)o1 [Ranitidine] ; efflux ratio at 2 h, 10 μM observed: 5.41
